This collection of values is drawn from ChEMBL document CHEMBL3137667.

Listed compounds paired with reported Hepatotoxicity (benign tumour)
- STATED CONDITIONS: human;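 further: value is a count of indexed literature references citing a benign tumour confirmed by histopathology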
Answer with a bare number; do not write a unit.

Answered examples (4):
COMPOUND	RECORDED MEASUREMENT
CO/N=C(\C(=O)N[C@@H]1C(=O)N2C(C(=O)O)=C(CSc3cnns3)CS[C@H]12)c1csc(N)n1	0
CCC(C)n1ncn(-c2ccc(N3CCN(c4ccc(OCC5COC(Cn6cncn6)(c6ccc(Cl)cc6Cl)O5)cc4)CC3)cc2)c1=O (configuration not stated)	1
Cc1cc2c(s1)Nc1ccccc1N=C2N1CCN(C)CC1	0
COc1cc2nc(N3CCN(C(=O)C4COc5ccccc5O4)CC3)nc(N)c2cc1OC (configuration not stated)	0

Quick one: Hepatotoxicity (benign tumour) of CC(=O)O[C@H]1CC[C@H]2[C@@H]3CC[C@H]4CC(=O)C=C(C)[C@]4(C)[C@H]3CC[C@]12C [METHENOLONE ACETATE] ?
1

Look up Hepatotoxicity (benign tumour) for this compound: CCCCCCCCNC(C)C(O)c1ccc(SC(C)C)cc1 (configuration not stated)
0

Can you look up the measured Hepatotoxicity (benign tumour) of CO/N=C(\C(=O)N[C@@H]1C(=O)N2C(C(=O)O)=C(CSc3nc(C)c(CC(=O)O)s3)CS[C@H]12)c1csc(N)n1 for me?
0
